# study target: UniProt:P36896
# Sequence (P36896 whole entry, looked up): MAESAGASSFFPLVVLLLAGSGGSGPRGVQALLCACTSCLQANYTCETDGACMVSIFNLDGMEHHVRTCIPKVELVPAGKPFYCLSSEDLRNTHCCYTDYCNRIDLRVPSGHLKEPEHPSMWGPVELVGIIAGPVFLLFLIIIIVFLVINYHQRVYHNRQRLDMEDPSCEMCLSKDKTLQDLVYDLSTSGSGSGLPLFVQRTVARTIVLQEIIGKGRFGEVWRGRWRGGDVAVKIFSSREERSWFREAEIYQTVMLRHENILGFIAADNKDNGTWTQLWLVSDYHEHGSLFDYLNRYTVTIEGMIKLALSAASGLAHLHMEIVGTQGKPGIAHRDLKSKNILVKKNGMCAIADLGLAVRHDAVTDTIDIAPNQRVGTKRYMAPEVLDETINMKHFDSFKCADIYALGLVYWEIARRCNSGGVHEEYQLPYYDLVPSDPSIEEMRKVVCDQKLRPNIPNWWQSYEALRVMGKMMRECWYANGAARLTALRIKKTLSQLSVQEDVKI
# experiment notes: radiometric filter-binding kinase assay, Kinase HotSpot
# run conditions: compound 0.5 µM; ATP 10 µM

compound	residual activity [%]
Nc1n[nH]c2nnc(-c3c(-c4ccccc4)nn4ccccc34)cc12	107
Nc1nc(Nc2ccc(S(N)(=O)=O)cc2)nn1C(=O)c1c(F)cccc1F	118
Cc1cc2ncc(-c3ccccc3)nc2cc1C	97.7
CC(C)n1cnc2c(Nc3cccc(Cl)c3)nc(NCCO)nc21	101
C#Cc1cccc(Nc2ncnc3cc(OCCOC)c(OCCOC)cc23)c1	101
O=C1Cc2c([nH]c3ccc([N+](=O)[O-])cc23)-c2ccccc2N1	109
COc1cc2ncnc(Nc3ccc(F)c(Cl)c3)c2cc1OCCCN1CCOCC1	99.6
O=C1Nc2cc(Br)ccc2/C1=C1/Nc2ccccc2/C1=N\O	100
Cc1ccc(NC(=O)c2ccc(CN3CCN(C)CC3)cc2)cc1Nc1nc(-c2cccnc2)cs1	99.8
O=C(NC(NC(=S)Nc1ccc(F)c([N+](=O)[O-])c1)C(Cl)(Cl)Cl)C(c1ccccc1)c1ccccc1 (configuration not stated)	106
CCN1/C(=C/C(C)=O)Sc2ccc(OC)cc21	109
CSc1nc(-c2ccc(F)cc2)c(-c2ccnc(NC(C)c3ccccc3)c2)[nH]1 (configuration not stated)	95.9
O=c1cc(-c2cccc3c2Sc2ccccc2S3)oc(N2CCOCC2)c1	114
COc1ccc(-c2cnc3c(-c4ccsc4)cnn3c2)cc1	100
O=C1Nc2ccccc2/C1=C\c1c(Cl)[nH]c2ccccc12	105
CS(=O)c1ccc(-c2nc(-c3ccc(F)cc3)c(-c3ccncc3)[nH]2)cc1 (configuration not stated)	127
Nc1nc(Nc2ccc(S(N)(=O)=O)cc2)nn1C(=S)Nc1c(F)cccc1F	92.2
Oc1ccc(-c2nc(-c3ccc(F)cc3)c(-c3ccncc3)[nH]2)cc1	136
CC(C)[C@H](CO)Nc1nc(Nc2cccc(Cl)c2)c2ncn(C(C)C)c2n1	99.8
COc1cc2nccc(Oc3ccc(NC(=S)NC(=O)c4ccccc4C)cc3)c2cc1OC	92.1
Clc1ccc(Nc2nnc(Cc3ccncc3)c3ccccc23)cc1	108
O=c1cc(N2CCNCC2)oc2c(-c3ccccc3)cccc12	105
